Data provenance is patent US7018642B2.

System: P. fluorescens strain ATCC 13525
Test: Biofilm prevention screen (96-well microplate, crystal violet)
Type: cell-based
Conditions: Pseudomonas fluorescens, ATCC13525, 32 μM, positive = prevention, negative = enhancement of biofilm formation, quadruplicate, read-out: average percentage reduction of biofilm formed relative to DMSO controls
Experimental Readout: inhibition at 32 µM (%)
Number only, in %; omit the unit.

CCCCCCCCCCCCNC(=O)[C@H]1CCCN1 [Compound 167]; 38
CCCCCCCCNC(=O)[C@H]1CCCCN1C(=O)OC(C)(C)C [Compound 22]; 3
CCCCCCNC(=O)[C@H]1CCCN1 [Compound 163]; 5
CCCCCCCCNC(=O)[C@@H]1CCN1C(=O)OC(C)(C)C [Compound 284]; 4
CCCCCCCCNC(=O)[C@H]1CCCN1 [Compound 164]; 8

Incoming: Checklist item: inhibition at 32 µM tested on P. fluorescens strain ATCC 13525, entry CCCCCCCCNC(=O)[C@@H]1CCCN1C(=O)OC(C)(C)C [Compound 11] , value?
Outgoing: -4

Incoming: Checklist item: inhibition at 32 µM tested on P. fluorescens strain ATCC 13525, entry CCCCCCNC(=O)[C@@H]1CCN1 [Compound 287] , value?
Outgoing: -42

Incoming: Checklist item: inhibition at 32 µM tested on P. fluorescens strain ATCC 13525, entry CCCCCCCCCCCCNC(=O)[C@@H]1CCN1C(=O)OC(C)(C)C [Compound 286] , value?
Outgoing: -9

Incoming: Checklist item: inhibition at 32 µM tested on P. fluorescens strain ATCC 13525, entry CCCCCCNC(=O)[C@@H]1CCCN1 [Compound 30] , value?
Outgoing: 11

====

Tested on: S. epidermidis strain ATCC 35984
Assay: Biofilm prevention screen (96-well microplate, crystal violet)
Type: cell-based
Conditions: Staphylococcus epidermidis, ATCC35984, 160 μM, positive = prevention, negative = enhancement of biofilm formation, quadruplicate, read-out: average percentage reduction of biofilm formed relative to DMSO controls
Experimental Readout: inhibition at 160 µM (%)
Number only, in %; omit the unit.

CCCCCCNC(=O)[C@@H]1CCCN1 [Compound 30]; -7
CCCCCCCCNC(=O)[C@@H]1CCCCN1 [Compound 20]; 1
CCCCCCCCNC(=O)[C@@H]1CCCCN1C(C)=O [Compound 21]; -23
CCCCCCCCCCCCNC(=O)[C@@H]1CCN1 [Compound 290]; 100
CCCCCCCCCCCCNC(=O)[C@@H]1CCCN1C(=O)OC(C)(C)C [Compound 160]; 20
CCCCNC(=O)[C@H]1CCCN1 [Compound 162]; -8

Incoming: # lookup: inhibition at 160 µM of CCCCNC(=O)[C@@H]1CCCN1C(=O)OC(C)(C)C [Compound 155]
Outgoing: -1

====

Item-by-item account of inhibition at 390 µM
System: S. epidermidis strain ATCC 35984
Experiment: Biofilm prevention screen (96-well microplate, crystal violet)
Type: cell-based
Conditions: Staphylococcus epidermidis, ATCC35984, 390 μM, positive = prevention, negative = enhancement of biofilm formation, quadruplicate, read-out: average percentage reduction of biofilm formed relative to DMSO controls
Number only, in %; omit the unit.

Record excerpt, results attached:
CCCCCCCCNC(=O)[C@H]1CCCN1C(=O)OC(C)(C)C [Compound 154]; 52
CCCCCCCCCCCCNC(=O)[C@@H]1CCCN1C(=O)OC(C)(C)C [Compound 160]; 29

Incoming: # lookup: inhibition at 390 µM of CCCCCCCCCCNC(=O)[C@@H]1CCN1C(=O)OC(C)(C)C [Compound 285]
Outgoing: 66
